Reported IC50 by item:
System: 134 cancer cell lines
Experimental details: Cell viability assay (ATPlite, 72 hours), IC50 on cancer cell line panel
Reported conditions: Homo sapiens, A549, read-out: IC50 in cell proliferation assay, cell line A-549
Property: IC50

CC(=O)Nc1cccc(-n2c(=O)n(C3CC3)c(=O)c3c(Nc4ccc(I)cc4F)n(C)c(=O)c(C)c32)c1; 8 nM
Cn1cnc2c(F)c(Nc3ccc(Br)cc3F)c(C(=O)NOCCO)cc21; 92 nM
CC(C)(C)c1nc(-c2cccc(NS(=O)(=O)c3c(F)cccc3F)c2F)c(-c2ccnc(N)n2)s1; 2650 nM
Cc1cc(Nc2ncc(Cl)c(Nc3ccccc3S(=O)(=O)C(C)C)n2)c(OC(C)C)cc1C1CCNCC1; 4560 nM
C[C@H](Nc1ncnc2nc[nH]c12)c1cc2cccc(Cl)c2c(=O)n1-c1ccccc1; 23900 nM
